Data origin: PubChem BioAssay (NCI)

tested on: MDA-MB-468 breast; experiment: NCI tumour cell line growth inhibition, 48 h
measure.name: TGI (µM)

1. Cc1cc(O)ccc1C1=NN(c2ccc(S(C)(=O)=O)cc2)C(=O)CC1
44.3
2. Cl.Fc1c[c-]c(-c2ccccn2)c(F)c1.[Pt].c1ccc(P(c2ccccc2)C([PH+](c2ccccc2)c2ccccc2)[PH+](c2ccccc2)c2ccccc2)cc1
19.5
3. COc1cc2nc(SCC(=O)Nc3cc(OC)c(OC)c(OC)c3)n(Cc3ccccc3)c(=O)c2cc1OC
20.2
4. [O-][n+]1ccccc1S
45.2
5. O=C(Cn1c(-c2ccccc2)nc2ccccc21)N=Nc1c(O)[nH]c2ccc(Cl)cc12
18.9
6. Clc1ccc2c(c1)N(c1ncnc3ccc(-c4cnc5[nH]ccc5c4)cc13)CC2
13.7
7. Nc1ncc(-c2ccc3ncnc(N4CCc5cc(F)c(Cl)cc54)c3c2)cn1
3.04

###

tested on: UACC-257 melanoma; assay: NCI tumour cell line growth inhibition, 48 h
The reader will find reported GI50 values listed item by item below.
measure.name: GI50

1) O=C(Cn1c(-c2ccccc2)nc2ccccc21)N=Nc1c(O)[nH]c2ccc(Cl)cc12
14.1 µM
2) COc1cnc2c(c1)C(=O)c1c-2n(CCCNC(C)C)c(=O)c2cc(OC)c(OC)cc12
12 µM
3) Clc1ccc(-c2nc3c4c(-c5ccccc5)c(-c5ccccc5)n(Cc5ccccc5)c4ncn3n2)cc1
4.17 µM
4) CCCCCCCCCCCCCCCCCCCC(=O)NCCc1c[nH]c2ccc(OC(=O)NOCCOCCOCCOCCOCCOCCOCCOCCOCCOCCOCCOCCOCCOCCOCCOCCOCCOCCOCCOCCOCCOCCOC)cc12
14.7 µM

###

tested on: HOP-62 NSCLC; experiment: NCI tumour cell line growth inhibition, 48 h
measure.name: GI50

1) Clc1ccc(-c2nc3c4c(-c5ccccc5)c(-c5ccccc5)n(Cc5ccccc5)c4ncn3n2)cc1
16.1 µM
2) O=C(Cn1c(-c2ccccc2)nc2ccccc21)N=Nc1c(O)[nH]c2ccc(Cl)cc12
17.2 µM
3) CCCCCCCCCCCCCCCCCCCC(=O)NCCc1c[nH]c2ccc(OC(=O)NOCCOCCOCCOCCOCCOCCOCCOCCOCCOCCOCCOCCOCCOCCOCCOCCOCCOCCOCCOCCOCCOCCOC)cc12
17.8 µM
4) COc1cnc2c(c1)C(=O)c1c-2n(CCCNC(C)C)c(=O)c2cc(OC)c(OC)cc12
0.702 µM
